biological target: T1, CDK9/Cyclin T1 (Homo sapiens, UniProt P50750); assay: CDK9 enzyme protocol (LANCE ULight TR-FRET kinase assay); format: biochemical; conditions: 4 nM CDK9/Cyclin T1, 1000 μM ATP, 100 nM U-light MBP peptide, 30 minutes
T1 construct: purchased Carna Biosciences 04-110
T1 sequence (P50750 whole entry): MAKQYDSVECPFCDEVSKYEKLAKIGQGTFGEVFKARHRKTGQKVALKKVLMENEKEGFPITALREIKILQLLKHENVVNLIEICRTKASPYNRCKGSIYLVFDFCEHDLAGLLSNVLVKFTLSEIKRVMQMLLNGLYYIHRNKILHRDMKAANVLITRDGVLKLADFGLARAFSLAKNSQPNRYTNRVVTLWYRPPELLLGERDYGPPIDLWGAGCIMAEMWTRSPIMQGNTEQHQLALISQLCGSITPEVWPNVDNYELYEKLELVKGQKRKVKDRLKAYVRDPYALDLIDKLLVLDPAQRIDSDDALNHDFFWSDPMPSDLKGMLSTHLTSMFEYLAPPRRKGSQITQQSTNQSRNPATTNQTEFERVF
T1 sequence (O60563 whole entry partner): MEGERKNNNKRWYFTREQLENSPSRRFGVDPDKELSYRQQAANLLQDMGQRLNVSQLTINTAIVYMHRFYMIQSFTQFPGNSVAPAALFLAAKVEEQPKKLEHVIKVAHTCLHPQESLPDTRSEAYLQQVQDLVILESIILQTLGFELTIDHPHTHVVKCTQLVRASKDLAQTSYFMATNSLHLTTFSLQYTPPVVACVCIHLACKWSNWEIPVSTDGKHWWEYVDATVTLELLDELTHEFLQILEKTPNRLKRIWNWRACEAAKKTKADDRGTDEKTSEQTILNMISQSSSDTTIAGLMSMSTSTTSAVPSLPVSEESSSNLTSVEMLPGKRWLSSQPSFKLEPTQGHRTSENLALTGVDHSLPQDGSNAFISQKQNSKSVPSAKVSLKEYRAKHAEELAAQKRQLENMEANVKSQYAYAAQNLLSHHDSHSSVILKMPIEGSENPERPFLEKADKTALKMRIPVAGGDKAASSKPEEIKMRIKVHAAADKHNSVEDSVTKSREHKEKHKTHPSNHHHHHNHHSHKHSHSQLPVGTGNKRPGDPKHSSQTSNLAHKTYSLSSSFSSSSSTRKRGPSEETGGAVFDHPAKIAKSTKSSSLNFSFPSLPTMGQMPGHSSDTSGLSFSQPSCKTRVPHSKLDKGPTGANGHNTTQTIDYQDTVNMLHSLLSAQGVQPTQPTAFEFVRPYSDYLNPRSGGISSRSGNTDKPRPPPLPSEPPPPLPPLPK
measured property: IC50 (nM)

[[record]]
compound = "CS(=O)(=O)Nc1cccc(-c2ncnc3[nH]c(C4=CCN(S(C)(=O)=O)CC4)cc23)c1 [Example 48]"
target_entity = "T1, CDK9/Cyclin T1 (Homo sapiens, UniProt P50750)"
measurement_units = "nM"
quantitative_readout = 290

[[record]]
compound = "CCOc1ccc(F)cc1-c1ncnc2[nH]c(C3=CCN(Cc4ccc(NC(C)=O)cc4)CC3)cc12 [Example 68]"
target_entity = "T1, CDK9/Cyclin T1 (Homo sapiens, UniProt P50750)"
measurement_units = "nM"
quantitative_readout = 200

[[record]]
compound = "CCOC(=O)NS(=O)(=O)N1CC=C(c2cc3c(-c4cc(F)ccc4OC)ncnc3[nH]2)CC1 [Example 82]"
target_entity = "T1, CDK9/Cyclin T1 (Homo sapiens, UniProt P50750)"
measurement_units = "nM"
quantitative_readout = 71

[[record]]
compound = "CCOc1ccc(F)cc1-c1ncnc2[nH]c(C3=CCN(C(=O)OC(C)(C)C)CC3)cc12 [Example 66]"
target_entity = "T1, CDK9/Cyclin T1 (Homo sapiens, UniProt P50750)"
measurement_units = "nM"
quantitative_readout = 1500


----------
molecular target: CDK9/Cyclin T1 (Homo sapiens, UniProt P50750); assay: CDK9 enzyme protocol (LANCE ULight TR-FRET kinase assay); conditions: 4 nM CDK9/Cyclin T1, 1000 μM ATP, 100 nM U-light MBP peptide, 30 minutes
Measured log10 IC50 accompanies every entry in the list below.
measured property: log10 IC50 (log10 of the value in nM)

[[record]]
compound = "CCOc1ccc(F)cc1-c1ncnc2[nH]c(C3=CCNCC3)cc12"
measured_property = "log10 IC50"
quantitative_readout = 2.48

[[record]]
compound = "COc1ccc(F)cc1-c1ncnc2[nH]c(C3=CCN(Cc4ccnc(C(F)(F)F)c4)CC3)cc12"
measured_property = "log10 IC50"
quantitative_readout = 2.34

[[record]]
compound = "COc1ccc(F)cc1-c1ncnc2[nH]c(C3=CCN(CC4CCCO4)CC3)cc12 (centres unmarked)"
measured_property = "log10 IC50"
quantitative_readout = 2.00

[[record]]
compound = "COc1ccc(F)cc1-c1ncnc2[nH]c(C3=CCN(Cc4ccccn4)CC3)cc12"
measured_property = "log10 IC50"
quantitative_readout = 2.28

[[record]]
compound = "COc1ccc(F)cc1-c1ncnc2[nH]c(C3=CCN(S(=O)(=O)C4CCS(=O)(=O)C4)CC3)cc12 (centres unmarked)"
measured_property = "log10 IC50"
quantitative_readout = 1.63

[[record]]
compound = "CS(=O)(=O)N1CC=C(c2cc3c(N4CCOCC4)ncnc3[nH]2)CC1"
measured_property = "log10 IC50"
quantitative_readout = 3.60

[[record]]
compound = "COc1ccc(F)cc1-c1ncnc2[nH]c(C3=CCN(C(=O)C4CCN4)CC3)cc12 (centres unmarked)"
measured_property = "log10 IC50"
quantitative_readout = 1.94

[[record]]
compound = "COc1ccc(F)cc1-c1ncnc2[nH]c(C3=CCN(C(=O)N(C)C)CC3)cc12"
measured_property = "log10 IC50"
quantitative_readout = 1.20

[[record]]
compound = "COc1ccc(F)cc1-c1ncnc2[nH]c(C3=CCN([C@H]4CC[C@H](CC(=O)O)CC4)CC3)cc12"
measured_property = "log10 IC50"
quantitative_readout = 2.48

[[record]]
compound = "CN(C)C(=O)N1CC=C(c2cc3c(-c4cccc(F)c4F)ncnc3[nH]2)CC1"
measured_property = "log10 IC50"
quantitative_readout = 1.83

[[record]]
compound = "CS(=O)(=O)N1CC=C(c2cc3c(-c4cc(NCc5ccncc5)ccc4F)ncnc3[nH]2)CC1"
measured_property = "log10 IC50"
quantitative_readout = 1.71

[[record]]
compound = "CNC(=O)N1CC=C(c2cc3c(-c4cc(F)ccc4OC)ncnc3[nH]2)CC1"
measured_property = "log10 IC50"
quantitative_readout = 2.08

[[record]]
compound = "COc1ccncc1-c1ncnc2[nH]c(C3=CCN(S(C)(=O)=O)CC3)cc12"
measured_property = "log10 IC50"
quantitative_readout = 2.96

[[record]]
compound = "CCCOc1ccc(F)cc1-c1ncnc2[nH]c(C3=CCN(S(C)(=O)=O)CC3)cc12"
measured_property = "log10 IC50"
quantitative_readout = 3.11

[[record]]
compound = "COc1ccc(F)cc1-c1ncnc2[nH]c(C3=CCN(S(=O)(=O)C(C)C)CC3)cc12"
measured_property = "log10 IC50"
quantitative_readout = 2.20

[[record]]
compound = "COc1ccc(F)cc1-c1ncnc2[nH]c(C3=CCN(S(C)(=O)=O)CC3)cc12"
measured_property = "log10 IC50"
quantitative_readout = 1.30

[[record]]
compound = "COc1ccc(F)cc1-c1ncnc2[nH]c(C3=CCN(Cc4ccc(N)cc4)CC3)cc12"
measured_property = "log10 IC50"
quantitative_readout = 1.96

